tested on: H460 (human lung carcinoma); assay: one spot 100 µg/ml cytotoxicity, H460; assay type: cell-based; conditions: Homo sapiens, NCI-H460, percent inhibition, read-out: one spot concentration inhibition, H460
We begin with a simple list: items and their reported inhibition at 100 µg/mL.
Please respond with the number in % and leave the unit unwritten.

// solved cases for inhibition at 100 µg/mL follow
compound	study-system	inhibition at 100 µg/mL, %
CC(=O)C1C(c2ccc([N+](=O)[O-])cc2)c2c(C)nc(SCC(=O)Nc3cccc4ccccc34)c(C#N)c2CC1(C)O (stereo not shown)	H460 (human lung carcinoma)	62
CC(=O)C1C(c2cccc([N+](=O)[O-])c2)c2c(C)nc(SCC(=O)Nc3cccc4ccccc34)c(C#N)c2CC1(C)O (stereo not shown)	H460 (human lung carcinoma)	59.6
CC(=O)c1ccc(NC(=O)CSc2nc(C)c3c(c2C#N)CC(C)(O)C(C(C)=O)C3c2cccc([N+](=O)[O-])c2)cc1 (stereo not shown)	H460 (human lung carcinoma)	63.5
CCOC(=O)CSc1nc(C)c2c(c1C#N)CC(C)(O)C(C(C)=O)C2c1cccc([N+](=O)[O-])c1 (stereo not shown)	H460 (human lung carcinoma)	66.8
CC(=O)C1C(c2cccc([N+](=O)[O-])c2)c2c(C)nc3sc(C(=O)Nc4nc5ccccc5s4)c(N)c3c2CC1(C)O (stereo not shown)	H460 (human lung carcinoma)	63.3
CC(=O)C1C(c2ccc([N+](=O)[O-])cc2)c2c(C)nc3sc(C(=O)Nc4cccc5ccccc45)c(N)c3c2CC1(C)O (stereo not shown)	H460 (human lung carcinoma)	58
CC(=O)C1C(c2cccc([N+](=O)[O-])c2)c2c(C)[nH]c(=S)c(C#N)c2CC1(C)O (stereo not shown)	H460 (human lung carcinoma)	55.3
CSc1nc(C)c2c(c1C#N)CC(C)(O)C(C(C)=O)C2c1cccc([N+](=O)[O-])c1 (stereo not shown)	H460 (human lung carcinoma)	62

The compound identified as CC(=O)C1C(c2ccc([N+](=O)[O-])cc2)c2c(C)nc(SCC#N)c(C#N)c2CC1(C)O (stereo not shown) registered its inhibition at 100 µg/mL at 66.6

Documented inhibition at 100 µg/mL of COc1cccc2c1C(=O)c1c(O)c3c(c(O)c1C2=O)C[C@@](O)(C(=O)CO)C[C@@H]3O[C@H]1C[C@H](N)[C@H](O)[C@H](C)O1 [Doxorubicin, reference compound] : 72.9

---

tested on: MCF7 (human breast carcinoma); test: one spot 100 µg/ml cytotoxicity, MCF7; assay type: cell-based; settings: Homo sapiens, MCF7, percent inhibition, read-out: one spot concentration inhibition, MCF7
Listed here: items and their measured inhibition at 100 µg/mL.
Please answer using the number first and the unit second.

Answered cases to consult:
In [3]: df
Out[3]:
                                   molecule          reported_metric  experimental_result
0  CC(=O)C1C(c2cccc([N+](=O)[O-])c2)c2c(C)nc(SCC(=O)Nc3cccc4ccccc34)c(C#N)c2CC1(C)O (stereo not shown)  inhibition at 100 µg/mL                72.4%
1  CC(=O)C1C(c2cccc([N+](=O)[O-])c2)c2c(C)nc3sc(C(=O)Nc4nc5ccccc5s4)c(N)c3c2CC1(C)O (stereo not shown)  inhibition at 100 µg/mL                75.4%
2  CC(=O)C1C(c2ccc([N+](=O)[O-])cc2)c2c(C)nc(SCC(=O)Nc3cccc4ccccc34)c(C#N)c2CC1(C)O (stereo not shown)  inhibition at 100 µg/mL                57.2%

Moving on to another molecule below.
Case CSc1nc(C)c2c(c1C#N)CC(C)(O)C(C(C)=O)C2c1cccc([N+](=O)[O-])c1 (stereo not shown) , MCF7 (human breast carcinoma), inhibition at 100 µg/mL recorded as 71.5%

---

tested on: HEPG2 (human liver carcinoma); assay: one spot 100 µg/ml cytotoxicity, HEPG2; format: cell-based; conditions: Homo sapiens, HepG2, percent inhibition, read-out: one spot concentration inhibition, HEPG2
Entries and their inhibition at 100 µg/mL
Write the answer as a number in %, unit excluded.

                                   compound                   study_system  measurement_unit  experimental_result
0  CC(=O)c1ccc(NC(=O)CSc2nc(C)c3c(c2C#N)CC(C)(O)C(C(C)=O)C3c2cccc([N+](=O)[O-])c2)cc1 (stereo not shown)  HEPG2 (human liver carcinoma)                 %                 59.5
1  CCOC(=O)CSc1nc(C)c2c(c1C#N)CC(C)(O)C(C(C)=O)C2c1cccc([N+](=O)[O-])c1 (stereo not shown)  HEPG2 (human liver carcinoma)                 %                 62.1
2  CC(=O)C1C(c2cccc([N+](=O)[O-])c2)c2c(C)nc3sc(C(=O)Nc4nc5ccccc5s4)c(N)c3c2CC1(C)O (stereo not shown)  HEPG2 (human liver carcinoma)                 %                 55.2

The record that follows has no inhibition at 100 µg/mL shown yet.
Lab note: measured inhibition at 100 µg/mL of CC(=O)C1C(c2ccc([N+](=O)[O-])cc2)c2c(C)nc(SCC#N)c(C#N)c2CC1(C)O (stereo not shown) was 68.2

---

system: HEPG2 cell line; assay: MTT in vitro cytotoxicity, HEPG2; assay type: cell-based, human; details: Homo sapiens; MTT, HEPG2; read-out: IC50 for HEPG2 ± S.D
In this section, each of the molecules is paired with its reported log10 of IC50.
A value of 2 here means IC50 of 100 in mg/L, since values are log10.

molecule	study-system	log10 of IC50
COc1cccc2c1C(=O)c1c(O)c3c(c(O)c1C2=O)C[C@@](O)(C(=O)CO)C[C@@H]3O[C@H]1C[C@H](N)[C@H](O)[C@H](C)O1 [Doxorubicin, reference compound]	HEPG2 cell line	0.62

Record CC(=O)C1C(c2ccc([N+](=O)[O-])cc2)c2c(C)nc(SCC#N)c(C#N)c2CC1(C)O (stereo not drawn) . Reported log10 of IC50: 1.99

Input CSc1nc(C)c2c(c1C#N)CC(C)(O)C(C(C)=O)C2c1cccc([N+](=O)[O-])c1 (stereo not drawn) . Output log10 of IC50: 1.88

Field log10 of IC50 (entry CC(=O)C1C(c2ccc([N+](=O)[O-])cc2)c2c(C)nc3sc(C(=O)Nc4cccc5ccccc45)c(N)c3c2CC1(C)O (stereo not drawn) ) reads 1.94

Lab note: CC(=O)C1C(c2ccc([N+](=O)[O-])cc2)c2c(C)nc(SCC(=O)Nc3cccc4ccccc34)c(C#N)c2CC1(C)O (stereo not drawn) gave log10 of IC50 of 1.97

---

test system: HSF; assay: IC50 against normal cell line HSF; type: cell-based, human; conditions: Homo sapiens; normal skin cell line HSF; read-out: IC50 FOR HSF ± S.D.
Collected IC50 values appear next to each entry.
Answer in µg/mL, number only, no unit symbol.

// below: answered compounds
                                   compound  reported_metric  measurement_unit  experimental_result
0  CC(=O)C1C(c2ccc([N+](=O)[O-])cc2)c2c(C)nc(SCC(=O)Nc3cccc4ccccc34)c(C#N)c2CC1(C)O (stereo not shown) [Compound 8b]             IC50             µg/mL                  100
1  CC(=O)C1C(c2cccc([N+](=O)[O-])c2)c2c(C)nc(SCC(=O)Nc3cccc4ccccc34)c(C#N)c2CC1(C)O (stereo not shown) [Compound 8a]             IC50             µg/mL                   84
2  CC(=O)C1C(c2ccc([N+](=O)[O-])cc2)c2c(C)nc(SCC#N)c(C#N)c2CC1(C)O (stereo not shown) [Compound 5]             IC50             µg/mL                   71

Recorded result, CCOC(=O)CSc1nc(C)c2c(c1C#N)CC(C)(O)C(C(C)=O)C2c1cccc([N+](=O)[O-])c1 (stereo not shown) [Compound 4] , IC50: 100

get_value(item= CC(=O)c1ccc(NC(=O)CSc2nc(C)c3c(c2C#N)CC(C)(O)C(C(C)=O)C3c2cccc([N+](=O)[O-])c2)cc1 (stereo not shown) [Compound 6a] , readout=IC50) returns 89

Kindly note the recorded IC50 for CC(=O)C1C(c2cccc([N+](=O)[O-])c2)c2c(C)[nH]c(=S)c(C#N)c2CC1(C)O (stereo not shown) [Compound 2a] , which is 100

# IC50 (compound: CC(=O)C1C(c2cccc([N+](=O)[O-])c2)c2c(C)nc3sc(C(=O)Nc4nc5ccccc5s4)c(N)c3c2CC1(C)O (stereo not shown) [Compound 10] ) is 89
